System: 3D7-MR4 trophozoite parasite-infected RBCs
PROTOCOL_TEXT: Metabolomic profiling (hydrophilic metabolite changes, UHPLC-MS)
Assay type: cell-based, Plasmodium falciparum
SETUP_CONDITIONS: metabolite N-acetyl-glutamine

COMPOUND	Log2(fold change) N-acetyl-glutamine
Cc1cc(Nc2ccc(S(F)(F)(F)(F)F)cc2)n2nc(C(C)(F)F)nc2n1 [DSM265, reference compound]	-0.1600
CCCN(CCC)CC(O)COc1ccccc1C(=O)Nc1ccccc1 (stereo not drawn)	-0.4062
COc1cc(-c2nc(-c3ccccc3)c(-c3ccccc3)[nH]2)ccc1OCCN(C)C	-1.0773
CCCOCc1cc(CN2CCN(c3cccc(Cl)c3)CC2)c(O)c2ncccc12	-0.3137
CC(C)C[C@@H](/C=C/S(C)(=O)=O)NC(=O)[C@H](CC(C)C)NC(=O)[C@H](Cc1c[nH]c2ccccc12)NC(=O)CN1CCOCC1 [WLL-vs, reference compound]	0.0000
CNc1nc(NCCCN(C)C)c2sc(-c3cccc(C(F)(F)F)c3)cc2n1	0.0000
CC(C)(C)c1ccc2c(c1)CN(Cc1ccc(Cl)cc1)CO2	-0.5645
O=C(Nc1ccsc1C(=O)NC1CCCCC1)c1ccc(F)cc1	0.1208
CCN(CC)CCn1c(=N)n(CC(O)c2ccc(Cl)c(Cl)c2)c2ccccc21.Cl (stereo not drawn)	-0.2284
